Source: patent US11827657B2

// values below are IC50; system is JAK1 (Homo sapiens, UniProt P23458)
Sequence (P23458 whole entry, species assumed): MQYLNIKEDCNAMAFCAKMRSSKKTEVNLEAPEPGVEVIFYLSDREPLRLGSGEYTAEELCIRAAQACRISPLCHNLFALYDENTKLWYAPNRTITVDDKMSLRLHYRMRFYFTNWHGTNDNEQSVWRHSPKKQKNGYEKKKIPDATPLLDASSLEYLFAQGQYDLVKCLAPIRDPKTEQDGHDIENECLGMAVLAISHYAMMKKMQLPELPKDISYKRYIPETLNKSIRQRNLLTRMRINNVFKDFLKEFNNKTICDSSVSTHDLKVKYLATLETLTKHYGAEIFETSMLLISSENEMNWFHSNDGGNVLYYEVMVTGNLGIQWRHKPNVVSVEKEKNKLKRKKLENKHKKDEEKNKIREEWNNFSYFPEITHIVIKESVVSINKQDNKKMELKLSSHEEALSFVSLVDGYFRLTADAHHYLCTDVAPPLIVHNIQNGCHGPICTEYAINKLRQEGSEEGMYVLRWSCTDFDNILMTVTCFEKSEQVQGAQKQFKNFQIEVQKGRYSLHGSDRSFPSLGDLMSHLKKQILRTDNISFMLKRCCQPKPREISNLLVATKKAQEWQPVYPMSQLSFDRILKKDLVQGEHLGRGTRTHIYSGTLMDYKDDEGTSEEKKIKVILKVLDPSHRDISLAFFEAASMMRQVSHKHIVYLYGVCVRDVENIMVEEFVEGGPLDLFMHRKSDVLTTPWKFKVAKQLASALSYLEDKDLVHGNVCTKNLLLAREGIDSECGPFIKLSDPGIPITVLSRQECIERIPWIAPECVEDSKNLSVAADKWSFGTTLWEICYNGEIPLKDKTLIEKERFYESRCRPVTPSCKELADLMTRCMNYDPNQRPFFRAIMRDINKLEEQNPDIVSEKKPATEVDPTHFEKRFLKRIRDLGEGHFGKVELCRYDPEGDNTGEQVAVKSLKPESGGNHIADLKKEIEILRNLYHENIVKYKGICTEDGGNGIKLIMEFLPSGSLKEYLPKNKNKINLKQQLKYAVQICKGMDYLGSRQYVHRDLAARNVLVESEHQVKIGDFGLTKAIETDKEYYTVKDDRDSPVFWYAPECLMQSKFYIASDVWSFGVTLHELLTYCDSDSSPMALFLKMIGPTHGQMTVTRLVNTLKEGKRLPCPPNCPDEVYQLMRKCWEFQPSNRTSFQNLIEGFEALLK

Ask | Data request, read-out IC50, for N#C[C@@H]1CCOC[C@H]1n1cc(C(N)=O)c(Nc2cc3c(c(C4CC4)c2)OB(O)C=C3)n1 (single isomer, unassigned) [Example 55a]
Reply | < 10 nM

Ask | I have this compound here, CC(C)C1=CB(O)Oc2ccc(Nc3nn([C@@H]4COCC[C@H]4C#N)cc3C(N)=O)cc21 (single isomer, unassigned) [Example 30a] , and I need its recorded IC50.
Reply | > 50 nM

Ask | Return reported IC50; argument: N#C[C@@H]1CCOC[C@H]1n1cc(C(N)=O)c(Nc2ccc3c(c2)OB(O)C=C3)n1 (relative stereo)
Reply | > 50 nM

Ask | Entry N#C[C@@H]1CCC[C@H]1n1cc(C(N)=O)c(Nc2ccc3c(c2)COB3O)n1 (relative stereo) has what IC50?
Reply | < 10 nM

Ask | Need IC50 of N#C[C@@H]1CCOC[C@H]1n1cc(C(N)=O)c(Nc2ccc3c(c2)C2CC2B(O)O3)n1 (relative stereo) , thanks.
Reply | < 10 nM

Ask | Look at this compound and give its reported IC50. N#C[C@@H]1CCOC[C@H]1n1cc(C(N)=O)c(Nc2cc3c(c(OC(F)(F)F)c2)OB(O)C=C3)n1 (single isomer, unassigned) [Example 53a]
Reply | > 50 nM

====

// endpoint pIC50 / system JAK1 (Homo sapiens)
pIC50: −log10 of the molar value.

Ask | Quick one: pIC50 for Cc1c(Nc2nn([C@@H]3COCC[C@H]3C#N)cc2C(N)=O)ccc2c1C=CB(O)O2 (single isomer, unassigned) [Example 17b] ?
Reply | < 7.30

Ask | Tell me the measured pIC50 of N#C[C@@H]1CCOC[C@H]1n1cc(C(N)=O)c(Nc2ccc3c(c2)B(O)OCC3)n1 (single isomer, unassigned) [Example 42b] , please.
Reply | > 8.00

Ask | Suppose we examine the compound N#C[C@@H]1CCOC[C@H]1n1cc(C(N)=O)c(Nc2cc(F)c3c(c2)C=CB(O)O3)n1 (single isomer, unassigned) [Example 44b] ; what pIC50 value has been reported?
Reply | > 8.00

Ask | Quick one: pIC50 of CC(C)(C)C1=Cc2cc(Nc3nn([C@@H]4COCC[C@H]4C#N)cc3C(N)=O)ccc2OB1O (relative stereo) ?
Reply | > 8.00

Ask | Item under review: N#C[C@@H]1CCC[C@H]1n1cc(C(N)=O)c(Nc2ccc3c(c2)B(O)OC3)n1 (relative stereo) . Reported pIC50?
Reply | 7.30 to 8.00

Ask | What does the data say about its pIC50? Entry: N#C[C@@H]1CCOC[C@H]1n1cc(C(N)=O)c(Nc2ccc3c(c2)B(O)OC3)n1 (single isomer, unassigned) [Example 16b]
Reply | > 8.00

====

Biological target: JAK1 (Homo sapiens)
Experiment: Biochemical Kinase Assay (JAK), 33P-ATP filter-binding
Conditions: Biochemical Kinase Inhibition Assay; potency level of IC50; read-out: JAK1 (range)
pIC50: −log10 of the molar value.
Could you please report measured pIC50 for the items listed next?

Ask | Entry N#C[C@@H]1CCOC[C@H]1n1cc(C(N)=O)c(Nc2cc(Cl)c3c(c2)C=CB(O)O3)n1 (single isomer, unassigned) [Example 13b] : reported pIC50 = ?
Reply | > 8.00

Ask | Form field: reported pIC50 of CC1=Cc2cc(Nc3nn([C@@H]4CCC[C@H]4C#N)cc3C(N)=O)cc(F)c2OB1O (single isomer, unassigned) [Example 45a]
Reply | > 8.00

Ask | # input molecule: CC(C)C1=Cc2cc(Nc3nn([C@@H]4COCC[C@H]4C#N)cc3C(N)=O)ccc2OB1O (single isomer, unassigned) [Example 48a] ; wanted: its pIC50
Reply | > 8.00
